- test.protocol: Pharmacokinetic study of DPTM in rats after i.v., i.m. and p.o. administration (HPLC-MS/MS, non-compartmental)
- Assay type: in vivo
- assay.context: Sprague-Dawley, rat, plasma, iv, 10 mg/kg, rat serum, i.v., 10 mg/kg; read-out: AUC0→t
endpoint.name: AUC(0-t) (ng·h/mL)
Only the number, expressed in ng·h/mL, is required.

Incoming: What AUC(0-t) value was documented for this molecule, C=CC1(C)CC(OC(=O)CSc2nc(N)cc(N)n2)C2(C)C(C)CCC3(CCC(=O)C32)C(C)C1O (stereo not shown) ?
Outgoing: 2200

====

- test.protocol: Pharmacokinetic study of DPTM in rats after i.v., i.m. and p.o. administration (HPLC-MS/MS, non-compartmental)
- Format: in vivo
- assay.context: Sprague-Dawley, plasma, po; rat, p.o., 75 mg/kg; read-out: CLR(0–t) renal clearance
endpoint.name: CL renal (mL/min)
Write it as a number; the unit mL/min goes unstated.

Incoming: So what's the measured CL renal for this one? C=CC1(C)CC(OC(=O)CSc2nc(N)cc(N)n2)C2(C)C(C)CCC3(CCC(=O)C32)C(C)C1O (stereo not shown)
Outgoing: 12.2
